Cited source for all entries: PubChem BioAssay (NCI)

Test system: HOP-92 NSCLC
Test: NCI-60 one-dose screen, 48 h (100 = growth as untreated, 0 = no growth, -100 = all killed)
Conditions: 10 µM unless noted
About 83,000 compounds went through this panel and 20% of them were active in at least one assay; those are over-represented in the sample as a whole.
PARAMETER: growth (%)
Provide the reading as a plain figure in %.

Problem: Requested field: growth. Item: `O=C(N=Nc1c(O)[nH]c2ccc(F)cc12)c1cc2ccccc2[nH]1`
Solution: 96.4

Problem: Same question for CC(=O)N1N=C(c2cccc(Nc3ccncc3)c2)CC1c1ccc2c(c1)OCO2 (stereo not drawn) please.
Solution: 72.1

Problem: Same question for `COc1cc(NCCN(CC(C)C)C2CCCC2)c2ncccc2c1` please.
Solution: 95.9
